# EXPERIMENTAL_PROTOCOL: Log D7.4 shake flask assay
# Assay type: physicochemical
# APPLIED_CONDITIONS: octanol/PBS, pH 7.4
PROPERTY: logD at 4 h
// return just the number, without any unit appended

Give the measured logD at 4 h of CCCSc1ccc2nc(NC(=O)OC)[nH]c2c1 [Albendazole, albendazole] .
3.6

###

Can you tell me half-life at 5 µM for the items I'm about to list?
# EXPERIMENTAL_PROTOCOL: Chemical stability assay
# Assay type: physicochemical
# APPLIED_CONDITIONS: buffer pH 10.0, pH 10, Chemical Stability - Half-Life, pH 10.0, 5 µM, 37 °C
The answer is to be given in min; state only the numeric part.

Give the measured half-life at 5 µM of CC(C)[N+](C)(CCOC(=O)C1c2ccccc2Oc2ccccc21)C(C)C [Propantheline bromide] .
8.3

Give the measured half-life at 5 µM of COc1ccc2[nH]c([S+]([O-])Cc3ncc(C)c(OC)c3C)nc2c1 (centres unmarked) .
55.3

###

# EXPERIMENTAL_PROTOCOL: Thermodynamic solubility
# APPLIED_CONDITIONS: pH 4.5
PROPERTY: solubility at 24 h

Give the measured solubility at 24 h of "CCCSc1ccc2nc(NC(=O)OC)[nH]c2c1" .
< 1 µg/mL

###

# EXPERIMENTAL_PROTOCOL: Caco-2 bidirectional permeability assay
# APPLIED_CONDITIONS: human, Caco-2, pH 7.4, Papp (Apical to Basal), Caco-2, 10 µM, 37 °C, apical to basal
PROPERTY: Papp at 2 h, 10 µM (×10⁻⁶ cm/s)
The answer is to be given in ×10⁻⁶ cm/s; state only the numeric part.

Give the measured Papp at 2 h, 10 µM of CC(C)NCC(O)COc1cccc2ccccc12 (stereo not shown) [Propranolol, propranolol] .
29
